assaySystem: USP14 (UniProt P54578)
Sequence (P54578 whole entry, the tested form may be a part): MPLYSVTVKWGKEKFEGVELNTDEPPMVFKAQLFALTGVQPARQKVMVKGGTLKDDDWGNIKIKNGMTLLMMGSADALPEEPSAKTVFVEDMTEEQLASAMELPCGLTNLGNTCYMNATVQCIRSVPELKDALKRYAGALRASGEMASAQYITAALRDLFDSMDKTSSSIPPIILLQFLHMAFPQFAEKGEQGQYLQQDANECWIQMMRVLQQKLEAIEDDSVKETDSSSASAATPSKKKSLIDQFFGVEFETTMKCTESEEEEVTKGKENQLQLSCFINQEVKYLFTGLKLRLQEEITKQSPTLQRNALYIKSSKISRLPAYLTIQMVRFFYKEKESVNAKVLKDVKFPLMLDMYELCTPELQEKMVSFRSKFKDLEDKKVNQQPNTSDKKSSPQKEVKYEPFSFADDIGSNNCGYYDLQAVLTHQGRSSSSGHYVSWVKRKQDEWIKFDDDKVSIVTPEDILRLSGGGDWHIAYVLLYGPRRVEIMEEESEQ
protocolSummary: log2 ratio of Biotin-Ahx-Ub-VS probe labelling (fragment/DMSO); higher = less target engagement (more negative = stronger competition), active = hit call of the paper (q ≤ 0.05, log2 ratio ≤ -1)
testSettings: compound concentration: 200 uM; treatment time: 3 h
log2 ratio of Biotin-Ahx-Ub-VS probe labelling listing for selected compounds.
# output: bare number, no unit

Give USP14 (UniProt P54578) log2 ratio of Biotin-Ahx-Ub-VS probe labelling for COc1ccc(Cl)cc1NC(=O)CCl
-0.655

Give USP14 (UniProt P54578) log2 ratio of Biotin-Ahx-Ub-VS probe labelling for Cl.O=C(CCl)N1CCC(Cc2nccs2)C1 (configuration not stated)
-0.2

Give USP14 (UniProt P54578) log2 ratio of Biotin-Ahx-Ub-VS probe labelling for Cc1ccc(CN(C)C(=O)CCl)o1
-0.0502

Give USP14 (UniProt P54578) log2 ratio of Biotin-Ahx-Ub-VS probe labelling for O=C(CCl)Nc1cc(Cl)ccc1C(=O)O
0.0912

Give USP14 (UniProt P54578) log2 ratio of Biotin-Ahx-Ub-VS probe labelling for CC1CCc2onc(CNC(=O)CCl)c2C1 (configuration not stated)
0.328

Give USP14 (UniProt P54578) log2 ratio of Biotin-Ahx-Ub-VS probe labelling for O=C(CCl)N1CCC(c2noc3cc(F)ccc23)CC1
-0.337

Give USP14 (UniProt P54578) log2 ratio of Biotin-Ahx-Ub-VS probe labelling for Cl.O=C(CCl)N1CC(c2ccc(Br)cn2)C1
-0.592
